- Test Summary: folding stability dG unfold (combined trypsin and chymotrypsin); higher = more stable
A collection of sequences and their measured folding stability dG unfold
Quantity Kind: folding stability dG unfold (kcal/mol)

>  <Input Sequence>
SAGGSAGGGGTLTIEVDAPAGAKKINIELPGGTVSNLSYDPSTGKATIPFDTPEQAKAVEALVGSAGGSAGG [r6_745_TrMRF]

>  <Relation Symbol>
=

>  <Number>
-0.086

$$$$
>  <Input Sequence>
SAGGKTVTIKAKSLEDALKAIEALPSVDKVTITVEVNGKTVTITLTVKPPPPVKYELDKNGKLVKKEKSAGG [r13_183_TrROS_Hall]

>  <Relation Symbol>
=

>  <Number>
1.28

$$$$
>  <Input Sequence>
SAGATFKPGQTVTVVEVKVEVSVSLSRNADGSVSLSVSVRVEVKTTTVTLPEPATVTLPPGVKSLEDLLSAG [r5_770_TrROS_Hall]

>  <Relation Symbol>
=

>  <Number>
3.27

$$$$
>  <Input Sequence>
SAGGSAGGSAGGKDGYYKAIIELPGGEKREIVFKYEDFEEALKSLGIPLENVKIVKIEEGSAGGSAGGSAGG [r7_211_TrMRF]

>  <Relation Symbol>
=

>  <Number>
3.48

$$$$
>  <Input Sequence>
SAGGQTIEIPNGITITYYPNNQVTITIRYPGRPLTVTSPYDSPEEAIDNIIEQAREMARPPPPKKKDDSAGG [r13_896_TrROS]

>  <Relation Symbol>
=

>  <Number>
0.68

$$$$
>  <Input Sequence>
SAGGSAGGSAGGLPPDVRLRVRITRPDGTVLEFDAPADVEIFFPDVPPEWRIEVDAEDVSAGGSAGGSAGGS [r10_774_TrMRF]

>  <Relation Symbol>
=

>  <Number>
2.09

$$$$
>  <Input Sequence>
SAGGSAGGSAGGSKETVKIAIKVKPGEKEITIEIKGKKYKVKVEEKDGLLYLTVSKEDLSAGGSAGGSAGGS [r4_430_TrROS_Hall]

>  <Relation Symbol>
=

>  <Number>
3.34

$$$$
>  <Input Sequence>
SAGGSAGGSAGKKKIKLLIFDKKTNKLYVVEVELTKDGKIKITKIKEIYEVKPGEKLKLLSAGGSAGGSAGG [r11_750_TrROS_Hall]

>  <Relation Symbol>
=

>  <Number>
1.19

$$$$
>  <Input Sequence>
SAGLFDYLHKHNGLVRAALRRNGPPVVIPRLFRIEPDGDTYKLSVPDPDGVPQDWEVLDVEVFKPEDAISAG [r14_427_TrMRF]

>  <Relation Symbol>
=

>  <Number>
-0.0844

$$$$
>  <Input Sequence>
GMNLKETTVTIPLKVKSEEEAKKKAEEIANELKKKYPDIIEIKIEIKEIDKETGIVIITIKFKAKNSSVLLS [r1_52_JUSTAS]

>  <Relation Symbol>
=

>  <Number>
2

$$$$
>  <Input Sequence>
SAGGSAGGPEIEVRFPDGWYVKITVERPEDGKVTVKVEVYHPDPNGKPIPPETAKNLAKEFLNKSAGGSAGG [r6_235_TrROS]

>  <Relation Symbol>
=

>  <Number>
0.67

$$$$
>  <Input Sequence>
SAGGSAGGSAGGMPPGTVVRSEVVRTETFTETITLPSGETATTTVTTTTTTEVEVEQPLSAGGSAGGSAGGS [r10_297_JUSTAS]

>  <Relation Symbol>
=

>  <Number>
0.54

$$$$
>  <Input Sequence>
SAGGSAGGSGMMTVELTETIVSETSVVTEKVPEKGEFIVEVLETSVSVVRRTLPLALYQALLESAGGSAGGS [r12_723_JUSTAS]

>  <Relation Symbol>
=

>  <Number>
0.789

$$$$
>  <Input Sequence>
SAGGSAGGSAGMELAEEVARKGKPGTLVTFTPPGGRVQLATVRGDEVTPSGLSPDYSVTLTSAGGSAGGSAG [r3_244_JUSTAS]

>  <Relation Symbol>
<

>  <Number>
-1

$$$$

Source listed as the supplement of paper PMC12764529.
